System: U-937
Test Name: Induction of apoptosis in human U937 cells assessed as early apoptotic cells at 2 ug/ml after 48 hrs by annexin V-FITC/propidium iodide staining-based flow cytometry (reference value: 5.7%)
Format: functional
Consider the following compounds and their measured Activity readings.
Give the number first and the unit second.

Solved entries (count: 3):
Cc1cc(Cl)c2c(c1O)C(=O)C=CC2=O :: 1.9%
Cc1cc(O)c2c(c1F)C(=O)C=CC2=O :: 1%
Cc1cc(O)c2c(c1Br)C(=O)C=CC2=O :: 3.4%

We now examine a further compound.
Activity in this record for `Cc1ccc2c(c1O)C(=O)C=CC2=O` : 6.4%

====

Test Name: Cell cycle arrest in human U937 cells assessed as accumulation at subG1 phase at 2 ug/ml after 24 hrs by propidium iodide staining-based flow cytometric analysis (reference value: 15.1%)
Format: functional
Assay Context: U-937
Property Name: Activity (%)
Give just the number in %; leave the unit off.

Cc1cc(O)c2c(c1Br)C(=O)C=CC2=O :: 14.8
Cc1cc(O)c2c(c1Cl)C(=O)C=CC2=O :: 17.1
Cc1cc(Cl)c2c(c1O)C(=O)C=CC2=O :: 18.1
Cc1cc(O)c2c(c1F)C(=O)C=CC2=O :: 8.2
Cc1ccc2c(c1O)C(=O)C=CC2=O :: 33.8

Activity in this record for `Cc1cc(O)c2c(c1)C(=O)C(O)=CC2=O` : 3
